Provenance of the data: paper PMC9700037

# target.entity: T1, Intracellularly biotinylated Avi-His6-tev-DPP9 (UniProt Q86TI2 1-863, biotin (on the Avi tag))
# T1 construct: dipeptidyl peptidase 9 (DPP9); also called biotin-DPP9; immobilized DPP9; source: Sf9 insect cells, intracellularly biotinylated, purified; not shown: Avi, N-terminal, kept; His6, N-terminal, kept
# protocol.details: SPR; biotinylated Avi-His6-tev-DPP9 immobilised on a Series S SA chip (Biacore 8K); monomeric fraction of FIIND proteins (or GST) injected, single-cycle kinetics, 78.125-5000 nM (S1213A from 39.06 nM), 10 mM Hepes pH 7.5, 150 mM NaCl, 0.5 mM TCEP, 0.05% Tween-20
# measurement.context: both partners purified
experimental.endpoint: Kd
Kindly format the answer as number then unit.

Request the reported Kd associated with NLRP1-FIIND (M1184V S1213A) (domain or fragment, human, UniProt Q9C000 1064-1376, looked up, NLRP1 FIIND domain, human, residues 1064-1376 of isoform 1, M1184V and S1213A; Uncleaved single chain; GST kept during the GST pull-down of the co-expression, cut off by TEV afterwards; also called cleavage-deficient FIIND mutant (M1184V–S1213A); source: also co-expressed with His6-DPP9 in Sf9; not shown: GST, N-terminal, cleaved) SQGDLHTKPLGTDDDFWGPTGPVATEVVDKEKNLYRVHFPVAGSYRWPNTGLCFVMREAVTVEIEFCVWDQFLGEINPQHSWMVAGPLLDIKAEPGAVEAVHLPHFVALQGGHVDTSLFQVAHFKEEGMLLEKPARVELHHIVLENPSFAPLGVLLKMIHNALRFIPVTSVVLLYHRVHPEEVTFHLYLIPSDCSIRKAIDDLEMKFQFVRIHKPPPLTPLYMGCRYTVSGSGSGMLEILPKELELCYRSPGEDQLFSEFYVGHLGSGIRLQVKDKKDETLVWEALVKPGDLMPATTLIPPARIAVPSPLDAP
2.9 µM

Same for NLRP1-FIIND (M1184V–P1214R) (domain or fragment, human, UniProt Q9C000 1064-1376, looked up, NLRP1 FIIND domain, human, residues 1064-1376 of isoform 1, M1184V and P1214R; they were combined here by mutagenesis; also called M1184V–P1214R double mutation; not shown: GST, N-terminal, cleaved) SQGDLHTKPLGTDDDFWGPTGPVATEVVDKEKNLYRVHFPVAGSYRWPNTGLCFVMREAVTVEIEFCVWDQFLGEINPQHSWMVAGPLLDIKAEPGAVEAVHLPHFVALQGGHVDTSLFQVAHFKEEGMLLEKPARVELHHIVLENPSFSRLGVLLKMIHNALRFIPVTSVVLLYHRVHPEEVTFHLYLIPSDCSIRKAIDDLEMKFQFVRIHKPPPLTPLYMGCRYTVSGSGSGMLEILPKELELCYRSPGEDQLFSEFYVGHLGSGIRLQVKDKKDETLVWEALVKPGDLMPATTLIPPARIAVPSPLDAP
4.5 µM

Try this binder too: NLRP1-FIIND (M1184V) (domain or fragment, human, UniProt Q9C000 1064-1376, looked up, NLRP1 FIIND domain (ZU5-UPA), human, residues 1064-1376 of isoform 1, natural variant M1184V; Mostly autocleaved between F1212 and S1213, the fragments stay together; GST is still on the protein during the GST pull-down of the co-expression experiments and is cut off by TEV before SEC, SEC-MALS and SPR; also called M1184V variant FIIND; source: also co-expressed with His6-DPP9 with or without …) SQGDLHTKPLGTDDDFWGPTGPVATEVVDKEKNLYRVHFPVAGSYRWPNTGLCFVMREAVTVEIEFCVWDQFLGEINPQHSWMVAGPLLDIKAEPGAVEAVHLPHFVALQGGHVDTSLFQVAHFKEEGMLLEKPARVELHHIVLENPSFSPLGVLLKMIHNALRFIPVTSVVLLYHRVHPEEVTFHLYLIPSDCSIRKAIDDLEMKFQFVRIHKPPPLTPLYMGCRYTVSGSGSGMLEILPKELELCYRSPGEDQLFSEFYVGHLGSGIRLQVKDKKDETLVWEALVKPGDLMPATTLIPPARIAVPSPLDAP
3.5 µM
